Measured values drawn from patent US9562053B2 for this set.

- TESTED SYSTEM: long form of human GPR120 (Homo sapiens)
- Sequence (Q5NUL3 1-377 isoform Q5NUL3-1): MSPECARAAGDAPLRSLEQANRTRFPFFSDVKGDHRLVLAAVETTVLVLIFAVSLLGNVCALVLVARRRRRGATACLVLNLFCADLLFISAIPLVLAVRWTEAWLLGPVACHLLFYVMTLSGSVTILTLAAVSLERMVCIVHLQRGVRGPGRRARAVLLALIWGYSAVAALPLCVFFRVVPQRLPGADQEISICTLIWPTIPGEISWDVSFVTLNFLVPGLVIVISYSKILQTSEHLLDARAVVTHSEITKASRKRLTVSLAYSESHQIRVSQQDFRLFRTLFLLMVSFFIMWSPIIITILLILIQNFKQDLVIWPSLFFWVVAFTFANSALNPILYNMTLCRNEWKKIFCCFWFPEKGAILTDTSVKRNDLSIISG
- PROTOCOL DETAILS: Human GPR120 DiscoveRx PathHunter Beta-Arrestin Assay, Procedure β-arrestin A (3000 cells per well)
- COND: read-out: GPR120 B-arrestin A EC50
pEC50: −log10 of the molar value.
pEC50 below 6 gives 0.0; pEC50 at or above it gives 1.0.

In: Could you verify whether the entry Cc1c(CCC(=O)O)ccc(OCc2cc(Cl)cc3cn(C)nc23)c1C shows pEC50 of no less than 6?
Out: 1.0

In: Could you verify whether the entry Cc1c(CCC(=O)O)ccc(OCc2cc(F)cc3cc(C#N)oc23)c1C shows pEC50 of no less than 6?
Out: 1.0

In: Could you verify whether the entry Cc1c(CCC(=O)O)ccc(OCc2cc(F)cc3cc(C(F)F)oc23)c1C shows pEC50 of no less than 6?
Out: 0.0

In: Could you verify whether the entry CCc1cc2cc(OC(F)(F)F)cc(COc3ccc(CCC(=O)O)c(C)c3C)c2o1 shows pEC50 of no less than 6?
Out: 1.0
